test system: human MAL; assay: Phage display screening of TIR domain-derived peptide library against immobilized MAL, NGS analysis after four rounds; type: binding; conditions: P8_MAL: library displayed on P8 coat protein, phages remaining after fourth round
OBSERVED_PROPERTY: NGS count
Enter a number only.

Example sequences with recorded NGS count:
RNNFIGHLYQALYRIG; 3120
KLFWEKFKEFFLPSLSR; 4888
SEFIQKIILWMNPKIV; 4458
HFFWIQLKSILGETSF; 3624

Here is the next item to consider.
Record request: NGS count value, item WFYERLVSLILRDTKV 79000
